- tested on: [3H]citalopram binding site, cerebral cortex membrane preparation (serotonin reuptake) (Rattus norvegicus)
- Construct: 146 μl of the cerebral cortex membrane preparation (72 μg/well in terms of protein); from tissue; host or cells: male rat cerebral cortex membrane preparation
- Sequence (P31652 whole entry): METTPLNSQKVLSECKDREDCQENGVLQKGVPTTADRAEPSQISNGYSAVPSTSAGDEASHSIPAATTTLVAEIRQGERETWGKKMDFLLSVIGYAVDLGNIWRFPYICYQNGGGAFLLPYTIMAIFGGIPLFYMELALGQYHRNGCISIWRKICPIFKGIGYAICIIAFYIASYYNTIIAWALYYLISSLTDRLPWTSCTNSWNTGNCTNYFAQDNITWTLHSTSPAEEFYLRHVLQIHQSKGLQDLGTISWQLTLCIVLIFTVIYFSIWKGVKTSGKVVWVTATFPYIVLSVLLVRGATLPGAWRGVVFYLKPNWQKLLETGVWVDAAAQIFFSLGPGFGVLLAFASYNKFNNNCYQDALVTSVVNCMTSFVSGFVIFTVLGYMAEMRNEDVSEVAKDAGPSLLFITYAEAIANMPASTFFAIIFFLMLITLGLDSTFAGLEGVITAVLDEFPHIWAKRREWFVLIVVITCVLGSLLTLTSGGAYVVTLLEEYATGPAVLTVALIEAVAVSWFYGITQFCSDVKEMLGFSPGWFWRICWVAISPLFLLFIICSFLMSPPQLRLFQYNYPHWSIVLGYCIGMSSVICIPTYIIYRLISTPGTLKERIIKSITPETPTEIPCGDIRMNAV
- test method notes: Screening test using [3H]citalopram binding (Test Example 1)
- setup conditions: 0.7 nM [3H]citalopram, test agent concentration not given, read-out: Rate of inhibition of [^3H] citalopram binding (%)
property measured: inhibition (%)

| entry smiles | result units | endpoint result |
| --- | --- | --- |
| COc1ccc(Br)c(CC2CCN(CCc3ccccc3)CC2)c1 | % | 82 |
| COc1ccc(Br)c(CC2CCN(CCc3cccc4ccccc34)CC2)c1 | % | 73 |
| CCOc1ccc(Br)c(CC2CCN(CCc3ccccc3Cl)CC2)c1 | % | 86 |
| NC(=O)c1cccc(CCN2CCC(Cc3ccccc3Br)CC2)c1 | % | 98 |
| COc1ccc(Cl)c(CC2CCN(CCCN3C(=O)c4ccccc4C3=O)CC2)c1 | % | 100 |
| COc1ccc(Br)c(CC2CCN(CCc3cccnc3)CC2)c1 | % | 91 |
| COc1ccc(Br)c(CC2CCN(Cc3cccc(C(=O)NCc4ccccc4)c3)CC2)c1 | % | 100 |

All values here come from patent US6787560B2.
